- studyTarget: trypsin
- measurementDescription: phage TRF ELISA; GlyAla (Pro3Gly, Arg4Ala) mutant against the clone
observedProperty: % reduction in binding signal (%)

1. KB_A11 (scFv, V domains shown) VH: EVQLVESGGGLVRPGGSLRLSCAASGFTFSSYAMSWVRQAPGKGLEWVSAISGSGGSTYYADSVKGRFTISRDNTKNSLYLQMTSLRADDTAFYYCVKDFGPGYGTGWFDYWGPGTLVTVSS VL: YLNWYQQKPGKAPKLLIYAAEICPRILMRCKQDSDCLAGCVCGPNGFCGPSSGIPARFSGSGYGTDFTLTINNIESEDAAYYFCLQHDNFPYTFGQGTKVEIKR	100
2. KB_B11 (scFv, V domains shown) VH: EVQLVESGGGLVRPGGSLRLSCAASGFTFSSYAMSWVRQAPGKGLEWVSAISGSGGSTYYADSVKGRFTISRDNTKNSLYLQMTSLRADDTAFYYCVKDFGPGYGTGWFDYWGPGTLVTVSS VL: TQPPSVSEAPRQRVTITCGSRPCPRILMRCKQDSDCLAGCVCGPNGFCGSHNWYQQLPGSSPTTVIYEDNQRPSGVPDRFSGSIDRSSNSASLTISGLKTEDEADYYCQSYDSSNHRVVFGGGTKLTVLG	100
3. KB_A06 (scFv, V domains shown) VH: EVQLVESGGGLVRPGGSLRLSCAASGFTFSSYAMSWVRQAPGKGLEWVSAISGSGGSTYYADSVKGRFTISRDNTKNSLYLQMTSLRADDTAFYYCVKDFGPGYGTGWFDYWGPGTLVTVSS VL: AVNWYQQLPGKAPKLLIYAAVRCPRILMRCKQDSDCLAGCVCGPNGFCGTPSGIPERFSGSIDRSTNSASLTISGLKTEDEADYYCQSYDSSNLNWVFGGGTKLTVLG	100
4. KB_A01 (scFv, V domains shown) VH: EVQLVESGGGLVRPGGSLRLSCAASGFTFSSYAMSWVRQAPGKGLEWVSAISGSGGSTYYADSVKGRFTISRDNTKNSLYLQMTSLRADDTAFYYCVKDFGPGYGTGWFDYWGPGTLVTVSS VL: YLNWYQQKPGKAPKLLIYAAEVCPRILMRCKQDSDCLAGCVCGPNGFCGGTSGVPSRFSGSRSGTEFTLTISSLQPEDFATYYCQKVDDYPLTFGGGTKVEIKR	93
5. KB_A02 (scFv, V domains shown) VH: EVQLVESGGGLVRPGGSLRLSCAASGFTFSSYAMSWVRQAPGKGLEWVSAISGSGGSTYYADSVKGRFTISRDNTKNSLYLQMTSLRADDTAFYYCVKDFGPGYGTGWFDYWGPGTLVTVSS VL: AVNWYQQLPGKAPKLLIYAAAKCPRILMRCKQDSDCLAGCVCGPNGFCGGASGVSDRFSGSIDSSSNSASLTISGLKPEDEGDYYCQSYDSSNRWVFGGGTKVTVLG	96
